Assignment: determine reported melting point for the given molecules.

Look over these answered cases.
CN(C)CCNC1=CC(=O)c2nc(-c3ccc(Br)cc3Cl)oc2C1=O [Example 39] : 163 to 164 °C
CN(C)CCNC1=CC(=O)c2nc(Cc3c(F)cccc3Cl)oc2C1=O [Example 43] : 178 to 179 °C
O=C1C=C(NCCN2CCCC2)C(=O)c2oc(-c3cc(F)c(F)c(F)c3)nc21 [Example 52] : 171 to 172 °C

Provide melting point for all items below, preserving their order.
1. O=C1C=C(NCCN2CCCC2)C(=O)c2oc(-c3ccc(Br)cc3Cl)nc21 [Example 55]
2. O=C1C=C(NCCN2CCCC2)C(=O)c2oc(Cc3c(F)cccc3Cl)nc21 [Example 58]
3. O=C1C=C(NCCN2CCCC2)C(=O)c2oc(-c3ccc4c(c3)OCO4)nc21 [Example 59]
4. O=C1C=C(NCCN2CCCC2)C(=O)c2oc(-c3cc(Br)cc(Br)c3)nc21 [Example 49]
5. CN(C)CCNC1=CC(=O)c2oc(-c3ccccc3Br)nc2C1=O [Example 16]
6. CN(C)CCNC1=CC(=O)c2nc(-c3cc(Br)cc(Br)c3)oc2C1=O [Example 32]

Output:
153 to 154 °C
173 to 174 °C
171 to 172 °C
202 to 203 °C
153 to 154 °C
206 to 207 °C

----------
property: melting point

CN(C)CCNC1=CC(=O)c2nc(-c3cccc(Br)c3)oc2C1=O : 174 to 175 °C

Provide melting point for all items below, preserving their order.
1. CN(C)CCNC1=CC(=O)c2oc(-c3cc(F)cc(F)c3)nc2C1=O
2. O=C1C=C(NCCN2CCCC2)C(=O)c2oc(-c3ccccc3Br)nc21
3. O=C1C=C(NCCN2CCCC2)C(=O)c2oc(-c3cc(F)cc(F)c3)nc21
4. CN(C)CCNC1=CC(=O)c2nc(-c3cccc(Cl)c3)oc2C1=O
5. CN(C)CCNC1=CC(=O)c2oc(Cc3ccccc3)nc2C1=O
6. CN(C)CCNC1=CC(=O)c2nc(-c3cc(F)cc(F)c3)oc2C1=O
7. CCc1ccc(-c2nc3c(o2)C(=O)C=C(NCCN(C)C)C3=O)cc1
8. CN(C)CCNC1=CC(=O)c2nc(-c3ccc(F)cc3)sc2C1=O

Output:
187 to 188 °C
123 to 124 °C
163 to 164 °C
174 to 175 °C
135 to 136 °C
176 to 177 °C
169 to 170 °C
246 to 247 °C

Provide melting point for all items below, preserving their order.
1. CN(C)CCNC1=CC(=O)c2nc(-c3cc(F)c(F)c(F)c3)oc2C1=O
2. CN(C)CCNC1=CC(=O)c2oc(-c3ccc(F)cc3)nc2C1=O

Output:
1: 188 to 189 °C; 2: 181 to 182 °C

----------
Assignment: determine reported melting point for the given compounds.

Look over these answered cases.
CN(C)CCNC1=CC(=O)c2nc(Cc3c(Cl)cccc3Cl)oc2C1=O : 172 to 173 °C
CN(C)CCNC1=CC(=O)c2nc(-c3cccc(F)c3F)oc2C1=O : 178 to 179 °C
COc1ccc(-c2nc3c(o2)C(=O)C(NCCN(C)C)=CC3=O)cc1OC : 181 to 182 °C
O=C1C=C(NCCN2CCCC2)C(=O)c2oc(-c3cccc(Cl)c3)nc21 : 161 to 162 °C
O=C1C=C(NCCN2CCCC2)C(=O)c2oc(-c3ccc(Br)cc3)nc21 : 165 to 166 °C

Provide melting point for all items below, preserving their order.
1. CCCCc1ccc(-c2nc3c(s2)C(=O)C(NCCN(C)C)=CC3=O)cc1
2. O=C1C(NCCN2CCCC2)=CC(=O)c2oc(-c3cc(F)cc(F)c3)nc21
3. O=C1C(NCCN2CCCC2)=CC(=O)c2oc(-c3cc(F)c(F)c(F)c3)nc21

Output:
126 to 127 °C
182 to 183 °C
193 to 194 °C

Task: State, in one line, measured melting point of Cc1cc(-c2nc3c(o2)C(=O)C(NCCN(C)C)=CC3=O)ccc1Br
Output: 165 to 166 °C

----------
property: melting point

CN(C)CCNC1=CC(=O)c2nc(-c3ccccc3Br)oc2C1=O : 147 to 148 °C
COc1ccc(-c2nc3c(o2)C(=O)C(NCCN2CCCC2)=CC3=O)cc1OC : 198.5 to 199.5 °C
O=C1C=C(NCCN2CCCC2)C(=O)c2oc(-c3cccc(Br)c3)nc21 : 163 to 164 °C

Provide melting point for all items below, preserving their order.
1. CN(C)CCNC1=CC(=O)c2nc(-c3ccc(-c4ccccc4)cc3)sc2C1=O
2. O=C1C(NCCN2CCCC2)=CC(=O)c2oc(-c3cccc(Br)c3)nc21
3. CN(C)CCNC1=CC(=O)c2nc(-c3ccc(Br)cc3)oc2C1=O
4. CN(C)CCNC1=CC(=O)c2nc(-c3ccc(F)cc3)oc2C1=O

Output:
["194 to 195 °C", "169 to 170 °C", "181 to 182 °C", "169 to 170 °C"]

Task: State, in one line, measured melting point of O=C1C=C(NCCN2CCCC2)C(=O)c2oc(-c3ccc(F)cc3)nc21
Output: 170 to 171 °C

Recorded values, source patent US7335674B2.
